# target_or_test_system: Prostaglandin E synthase (Homo sapiens)
# assay_summary: Inhibition of PGES-1 in human A549 cell microsomes using PGH2 as substrate assessed as suppression of interleukin-1beta-stimulated PGE2 production incubated for 15 mins post interleukin-1beta challenge for 72 hrs by RP-HPLC analysis
pIC50: −log10 of the molar value.
Record form. Attribute: pIC50. Fill in for each entry.

>>> result("COc1ccc(S(=O)(=O)N(Nc2ccccc2)C(=O)Oc2ccc(OCc3ccccc3)cc2)cc1")
"< 5.00"
>>> result("CCOc1ccc(OC(=O)N(Nc2ccccc2)S(=O)(=O)c2ccc(OC)cc2)cc1")
"< 5.00"
>>> result("Cc1ccc(OC(=O)N(Nc2ccccc2)S(=O)(=O)c2ccc(C)cc2)cc1")
5.21
>>> result("COc1ccc(S(=O)(=O)N(Nc2ccccc2)C(=O)Oc2ccc(Oc3ccccc3)cc2)cc1")
5.18
>>> result("COc1ccccc1OC(=O)N(Nc1ccccc1)S(=O)(=O)c1ccc(C)cc1")
"< 5.00"

Please supply pIC50 for each of the following items, keeping them in order.
1. CCc1ccc(OC(=O)N(Nc2ccccc2)S(=O)(=O)c2ccc(OC)cc2)cc1
2. CC(C)(C)c1ccc(S(=O)(=O)N(Nc2ccccc2)C(=O)Oc2ccc(OCc3ccccc3)cc2)cc1
3. COc1ccc(S(=O)(=O)N(Nc2ccccc2)C(=O)Oc2ccc3c(c2)CCC3)cc1
4. Cc1ccc(S(=O)(=O)N(Nc2ccccc2)C(=O)Oc2ccc(OCc3ccccc3)cc2)cc1
5. O=C(Oc1ccccc1)N(Nc1ccccc1)S(=O)(=O)c1ccccc1

Reply:
1. < 5.00
2. < 5.00
3. 7.15
4. < 5.00
5. < 5.00

====

# Tested on: RAW264.7
# assay_summary: Cytotoxicity against mouse RAW264.7 cells assessed as cell viability at 1 to 10 uM after 24 hrs in presence of LPS by MTT assay
# Type: cell-based
# protocol_conditions: raw264.7, 24 h
quantity: Cytotoxic concentration

The cases that follow already have their Cytotoxic concentration on record.
>>> result("Cc1ccc(OC(=O)N(Nc2ccccc2)S(=O)(=O)c2ccc(C)cc2)cc1")
"> 10 µM"
>>> result("COc1ccc(OC(=O)N(Nc2ccccc2)S(=O)(=O)c2ccc(OC)cc2)cc1")
"> 10 µM"
>>> result("Cc1ccc(OC(=O)N(Nc2ccccc2)S(=O)(=O)c2ccccc2)cc1")
"> 10 µM"
>>> result("Cc1cc(C)c(S(=O)(=O)N(Nc2ccccc2)C(=O)Oc2ccc(OCc3ccccc3)cc2)c(C)c1")
"> 1 µM"
>>> result("COc1ccc(S(=O)(=O)N(Nc2ccccc2)C(=O)Oc2ccc(Oc3ccccc3)cc2)cc1")
"> 10 µM"

Please supply Cytotoxic concentration for each of the following items, keeping them in order.
1. CCOc1ccc(OC(=O)N(Nc2ccccc2)S(=O)(=O)c2ccc(OC)cc2)cc1
2. COc1ccccc1OC(=O)N(Nc1ccccc1)S(=O)(=O)c1ccc(C)cc1
3. CCCc1ccc(S(=O)(=O)N(Nc2ccccc2)C(=O)Oc2ccc(Oc3ccccc3)cc2)cc1
4. O=C(Oc1ccc(Oc2ccccc2)cc1)N(Nc1ccccc1)S(=O)(=O)c1ccc(-c2ccccc2)cc1
5. CC(C)(C)c1ccc(S(=O)(=O)N(Nc2ccccc2)C(=O)Oc2ccc(OCc3ccccc3)cc2)cc1

Reply:
> 10 µM
> 10 µM
> 1 µM
> 1 µM
> 1 µM

Please supply Cytotoxic concentration for each of the following items, keeping them in order.
1. COc1ccc(S(=O)(=O)N(Nc2ccccc2)C(=O)Oc2ccccc2)cc1
2. Cc1ccc(S(=O)(=O)N(Nc2ccccc2)C(=O)Oc2ccccc2)cc1
3. COc1ccc(OC(=O)N(Nc2ccccc2)S(=O)(=O)c2ccccc2)cc1
4. COc1ccc(S(=O)(=O)N(Nc2ccccc2)C(=O)Oc2ccc3c(c2)CCC3)cc1
5. CCc1ccc(OC(=O)N(Nc2ccccc2)S(=O)(=O)c2ccc(OC)cc2)cc1

Reply:
> 10 µM
> 10 µM
> 10 µM
> 10 µM
> 10 µM

Please supply Cytotoxic concentration for each of the following items, keeping them in order.
1. Cc1ccc(S(=O)(=O)N(Nc2ccccc2)C(=O)Oc2ccc(OCc3ccccc3)cc2)cc1
2. COc1ccc(S(=O)(=O)N(Nc2ccccc2)C(=O)Oc2ccccc2OC)cc1
3. O=C(Oc1ccc(OCc2ccccc2)cc1)N(Nc1ccccc1)S(=O)(=O)c1ccc(-c2ccccc2)cc1
4. COc1ccc(S(=O)(=O)N(Nc2ccccc2)C(=O)Oc2ccc(OCc3ccccc3)cc2)cc1
5. Cc1cc(C)c(S(=O)(=O)N(Nc2ccccc2)C(=O)Oc2ccc(Oc3ccccc3)cc2)c(C)c1

Reply:
[">= 10 uM", "> 10 µM", "> 1 µM", ">= 10 uM", "> 1 µM"]

====

# target_or_test_system: Prostaglandin E synthase (Homo sapiens)
# Sequence (whole entry): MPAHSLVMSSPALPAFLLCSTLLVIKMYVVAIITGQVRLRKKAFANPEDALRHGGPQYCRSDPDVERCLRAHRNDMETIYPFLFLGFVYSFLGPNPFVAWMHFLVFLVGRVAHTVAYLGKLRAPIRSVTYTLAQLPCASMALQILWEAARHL
# assay_summary: Inhibition of PGES-1 in human A549 cell microsomes using PGH2 as substrate assessed as remaining enzyme activity of interleukin-1beta-stimulated PGE2 production at 10 uM incubated for 15 mins post interleukin-1beta challenge for 72 hrs by RP-HPLC analysis
quantity: Activity (%)
Give bare numbers, in %.

The cases that follow already have their Activity on record.
>>> result("COc1ccc(S(=O)(=O)N(Nc2ccccc2)C(=O)Oc2ccc(OCc3ccccc3)cc2)cc1")
62.6
>>> result("COc1ccc(S(=O)(=O)N(Nc2ccccc2)C(=O)Oc2ccc3c(c2)CCC3)cc1")
18.5
>>> result("CCOc1ccc(OC(=O)N(Nc2ccccc2)S(=O)(=O)c2ccc(OC)cc2)cc1")
62.5
>>> result("CCc1ccc(OC(=O)N(Nc2ccccc2)S(=O)(=O)c2ccc(OC)cc2)cc1")
63.6
>>> result("COc1ccc(S(=O)(=O)N(Nc2ccccc2)C(=O)Oc2ccc(Oc3ccccc3)cc2)cc1")
37.1
>>> result("Cc1ccc(S(=O)(=O)N(Nc2ccccc2)C(=O)Oc2ccc(OCc3ccccc3)cc2)cc1")
81.2
>>> result("O=C(Oc1ccccc1)N(Nc1ccccc1)S(=O)(=O)c1ccccc1")
63.6
>>> result("CC(C)c1ccc2c(c1)c(SC(C)(C)C)c(CC(C)(C)C(=O)O)n2Cc1ccc(Cl)cc1")
16.3
>>> result("Cc1ccc(OC(=O)N(Nc2ccccc2)S(=O)(=O)c2ccc(C)cc2)cc1")
41.3
>>> result("COc1ccccc1OC(=O)N(Nc1ccccc1)S(=O)(=O)c1ccc(C)cc1")
55.7

Task item: Give the measured Activity for CC(C)(C)c1ccc(S(=O)(=O)N(Nc2ccccc2)C(=O)Oc2ccc(OCc3ccccc3)cc2)cc1
Reply: 79.9
